Assign apparent Kd to each entry below.
# Tested on: MS2 coat protein
# Method: apparent Kd, MS2 coat protein; higher = weaker binding; RNA-MaP array
# Experimental Parameters: designed as: OFF switch for tryptophan; no ligand
Write the quantity with the unit trailing the number.

Entry Sequence: AACUGAAGCACCUUAUGCGGCGGCAAAACCCGAGGACCGGUACGGCCGCCACUCGAGUCGCAACAUGAGGAUCACCCAUGUGUAU
Experimental Target: MS2 coat protein
Measurement: 51.3 nM

Entry Sequence: UCCGGACGUUCGGCCGCCACUAAUUUACAUGAGGAUCACCCAUGUGCCAGUGGUCCGCAGAGUAAUAGGACCGGGAACCUUGGCU
Experimental Target: MS2 coat protein
Measurement: 25.9 nM

Entry Sequence: AAUUGAAACAGAGGUAUAUACGGACAUUACCGAGGACCGGUACGGCCGCCACUCGACCUAAAACAUGAGGAUCACCCAUGUAGCA
Experimental Target: MS2 coat protein
Measurement: 13.1 nM

Entry Sequence: AAUACAGCUACGGCCGCCACUUUAACUUGGUAUGGGUCCUUCACAAACAUGAGGAUCACCCAUGUAAGGACCGGGUAGCCUUGUU
Experimental Target: MS2 coat protein
Measurement: 21.1 nM

Here is another sequence to look at.
Field request: apparent Kd | item: `GCGUGUUAUAGUCAUCGUGAGCGUCCAUCCCGAGGACCGGUACGGCCGCCACUCGCCACAGGACAUGAGGAUCACCCAUGUUAUG`
15 nM

* * *

# Test system: MS2 coat protein
# Method: apparent Kd, MS2 coat protein; higher = weaker binding; RNA-MaP array
# Experimental Parameters: designed as: OFF switch for flavin mononucleotide; no ligand
Give apparent Kd for every item shown.
Please answer using a numeric value trailed by its unit.

Count: 4. Required value per item: apparent Kd.
1. GCUAGACAUGAGGAUCACCCAUGUGAGGAUAUUAGCCAAUCGAGUAAUCCGCUAUAGUUAAGAAGGCACGUGAU
2. AAUAAGUUAGGAUAUUCAGGAGCAGCGCAAUGGUACGAGUCGAAGAAGGAACAUGAGGAUCACCCAUGUGAACC
3. GAUCGACAUGAGGAUCACCCAUGUGAGGAUAUACCGCGGACUCCGUCUGCAUGUUAGGGUAGAAGGCACCGAGC
4. GCACCGCGAGGAUAUACUCUGGCUAUAAUACCAUAUGACAAACAUGAGGAUCACCCAUGUAGAAGGCGCGAUGU

1. 0.0167 µM
2. 0.0112 µM
3. 0.0141 µM
4. 0.0104 µM

Required: apparent Kd, one value per sequence below.
1. ACAUACAUGAGGAUCACCCAUGUGGGAUCUUCCUCUAAAACUAAGGAUAUGUCAGUUGGUUAACUACAGAAGGUAGGUCGGAAC
2. UCCUUGGAGUCAGGAUAUGUCGACAACGGAAUGACAGAAGGGACUUGGCAGCUUAAUUCUUCAGUACAUGAGGAUCACCCAUGU
3. AGUUCACAGGUGAGGAUAUCGGAGCACACAGACAGCGAGAAGGCACAUGAGGAUCACCCAUGUGGUCAGAAAAC
4. CGAAGACAUGAGGAUCACCCAUGUAAGGAUAUUCAAAGAGCGCACCUGAAUGCCCUAUGAAGAAGGUACCGGGC
5. GAUUCACAUGAGGAUCACCCAUGUCAGGAUAUGACUUGAGCUGUCUCCGAUCGAGCCAUCAGAAGGGACUGGAA

1: 0.313 µM; 2: 0.00935 µM; 3: 0.00873 µM; 4: 0.0699 µM; 5: 0.03 µM
